Cited source: the supplement of paper PMC9262897

- Test system: E. coli TESEC Mtb DapB
- test-name: growth (OD600 after 10 h); higher = more growth (less inhibition)
- condition-label: arabinose induction (level): Low; compound 0.1 mM; raw OD600 reference: median of DMSO wells 0.227, cell-free background 0.041
Counter-ions that a name gives are not always drawn.
Listing of entries alongside the reported growth.
measurement-name: growth

| molecule | measurement-name | endpoint-result |
| --- | --- | --- |
| CC(=O)OCC(=O)[C@@]12OC(C)(C)O[C@@H]1C[C@H]1[C@@H]3C[C@H](F)C4=CC(=O)C=C[C@]4(C)[C@@]3(F)[C@@H](O)C[C@@]12C [Fluocinonide] | growth | 0.234 |
| NC[C@@H]1O[C@H](O[C@H]2[C@@H](O)[C@H](O[C@@H]3[C@@H](O)[C@H](N)C[C@H](N)[C@H]3O[C@H]3O[C@H](CN)[C@@H](O)[C@H](O)[C@H]3N)O[C@@H]2CO)[C@H](N)[C@@H](O)[C@@H]1O [Neomycin sulfate] | growth | 0.245 |
| N#Cc1ccc(C(c2ccc(C#N)cc2)n2cncn2)cc1 | growth | 0.24 |

====

- Test system: E. coli TESEC Mtb DapB
- test-name: growth (OD600 after 10 h); higher = more growth (less inhibition)
- condition-label: arabinose induction (level): Low; compound 0.1 mM; raw OD600 reference: median of DMSO wells 0.227, cell-free background 0.041
Would you please tag the item 1 when its growth is 0.2 or above, and 0 when it is below?

| molecule | label |
| --- | --- |
| C[C@H]1[C@H](NC(=O)/C(=N\OC(C)(C)C(=O)O)c2csc(N)n2)C(=O)N1S(=O)(=O)O | 0 |
| Cc1onc(-c2ccccc2)c1C(=O)N[C@@H]1C(=O)N2[C@@H]1SC(C)(C)[C@@H]2C(=O)O [Oxacillin sodium] | 1 |
| COC(c1ccccc1)(c1ccccc1)[C@H](Oc1nc(C)cc(C)n1)C(=O)O | 1 |
| Cc1ncc([N+](=O)[O-])n1CC(C)O (stereo not drawn) | 1 |
| CO/N=C(\C(=O)N[C@@H]1C(=O)N2C(C(=O)OC(C)OC(C)=O)=C(COC(N)=O)CS[C@H]12)c1ccco1 (stereo partly drawn) | 1 |
| Clc1ccc(COC(Cn2ccnc2)c2ccc(Cl)cc2Cl)cc1 (stereo not drawn) [Econazole nitrate] | 0 |
| Nc1ncnc2c1ncn2C1OC(COP(=O)(O)O)C(O)C1O (stereo not drawn) [Adenosine 5'-monophosphate monohydrate] | 1 |

====

- Test system: E. coli TESEC Mtb Asd
- test-name: growth (OD600 after 10 h); higher = more growth (less inhibition)
- condition-label: arabinose induction (level): High; compound 0.1 mM; raw OD600 reference: median of DMSO wells 0.331, cell-free background 0.041
Counter-ions that a name gives are not always drawn.
Listing of entries alongside the reported growth.
measurement-name: growth

| molecule | system-under-test | measurement-name | endpoint-result |
| --- | --- | --- | --- |
| COc1cc(NC(C)CCCN)c2ncccc2c1 (stereo unspecified) [Primaquine diphosphate] | E. coli TESEC Mtb Asd | growth | 0.0857 |
| Nc1ncn(C2OC(CO)C(O)C2O)c(=O)n1 (stereo unspecified) [Azacytidine-5] | E. coli TESEC Mtb Asd | growth | 0.125 |
| CCCCc1ccc2[nH]c(NC(=O)OC)nc2c1 [Parbendazole] | E. coli TESEC Mtb Asd | growth | 0.279 |
| Nc1ccc(S(=O)(=O)NC(=O)c2ccccc2)cc1 [Sulfabenzamide] | E. coli TESEC Mtb Asd | growth | 0.402 |
| CC(=O)N[C@@H](CC(C)C)C(=O)O [N-Acetyl-L-leucine] | E. coli TESEC Mtb Asd | growth | 0.378 |
| COc1cc(C(=O)NC2CCCNC2)cc(OC)c1OC (stereo unspecified) [Troxipide] | E. coli TESEC Mtb Asd | growth | 0.353 |
| CCOC(=O)O[C@]1(C(=O)OCCl)CC[C@H]2[C@@H]3CCC4=CC(=O)C=C[C@]4(C)[C@H]3[C@@H](O)C[C@@]21C [Loteprednol etabonate] | E. coli TESEC Mtb Asd | growth | 0.24 |
| OC(CCN1CCCCC1)(c1ccccc1)C1CCCCC1 (stereo unspecified) [Trihexyphenidyl-D,L Hydrochloride] | E. coli TESEC Mtb Asd | growth | 0.299 |
| CC(C)NCC(O)c1ccc(O)c(O)c1 (single isomer, unassigned; (+)) [(+)-Isoproterenol (+)-bitartrate salt] | E. coli TESEC Mtb Asd | growth | 0.328 |
| CCCCCN(C)CCC(O)(P(=O)(O)O)P(=O)(O)O [Ibandronate sodium] | E. coli TESEC Mtb Asd | growth | 0.364 |
| CC(C)(C)NC(=O)[C@@H]1C[C@@H]2CCCC[C@@H]2CN1C[C@@H](O)[C@H](Cc1ccccc1)NC(=O)[C@H](CC(N)=O)NC(=O)c1ccc2ccccc2n1 [Saquinavir mesylate] | E. coli TESEC Mtb Asd | growth | 0.0544 |
| O=S(=O)(O)CCS [Mesna] | E. coli TESEC Mtb Asd | growth | 0.341 |
| NC[C@@H]1O[C@H](O[C@H]2[C@@H](O)[C@H](O[C@@H]3[C@@H](O)[C@H](N)C[C@H](N)[C@H]3O[C@H]3O[C@H](CN)[C@@H](O)[C@H](O)[C@H]3N)O[C@@H]2CO)[C@H](N)[C@@H](O)[C@@H]1O [Neomycin sulfate] | E. coli TESEC Mtb Asd | growth | 0.271 |
| CC1COc2c(N3CCN(C)CC3)c(F)cc3c(=O)c(C(=O)O)cn1c23 (stereo unspecified) [Ofloxacin] | E. coli TESEC Mtb Asd | growth | 0.0587 |
| Nc1nnc(-c2cccc(Cl)c2Cl)c(N)n1 [Lamotrigine] | E. coli TESEC Mtb Asd | growth | 0.236 |
| C[C@H](CCC(=O)O)[C@H]1CC[C@H]2[C@@H]3CC[C@@H]4C[C@H](O)CC[C@]4(C)[C@H]3CC[C@]12C [Lithocholic acid] | E. coli TESEC Mtb Asd | growth | 0.462 |
| CN(C)CCOc1ccc(/C(=C(/CCCl)c2ccccc2)c2ccccc2)cc1 [Toremifene] | E. coli TESEC Mtb Asd | growth | 0.0528 |
| CC[N+](C)(CC)CCC[n+]1c(-c2ccccc2)c2cc(N)ccc2c2ccc(N)cc21 [Propidium iodide] | E. coli TESEC Mtb Asd | growth | 0.0925 |
| COc1cc2c(cc1OC)C(=O)C(CC1CCN(Cc3ccccc3)CC1)C2 (stereo unspecified) [Donepezil hydrochloride] | E. coli TESEC Mtb Asd | growth | 0.234 |
| CC[C@H]1OC(=O)[C@H](C)[C@@H](O[C@H]2C[C@@](C)(OC)[C@@H](O)[C@H](C)O2)[C@H](C)[C@@H](O[C@@H]2O[C@H](C)C[C@H](N(C)C)[C@H]2O)[C@](C)(O)C[C@@H](C)[C@@H]2N[C@@H](COCCOC)O[C@H]([C@H]2C)[C@]1(C)O [Dirithromycin] | E. coli TESEC Mtb Asd | growth | 0.057 |
| Nc1c2c(nc3ccccc13)CCCC2 [Tacrine hydrochloride] | E. coli TESEC Mtb Asd | growth | 0.242 |
| O=C1CCc2ccc(OCCCCN3CCN(c4cccc(Cl)c4Cl)CC3)cc2N1 [Aripiprazole] | E. coli TESEC Mtb Asd | growth | 0.21 |
| CCC(C)n1ncn(-c2ccc(N3CCN(c4ccc(OCC5COC(Cn6cncn6)(c6ccc(Cl)cc6Cl)O5)cc4)CC3)cc2)c1=O (stereo unspecified) [Itraconazole] | E. coli TESEC Mtb Asd | growth | 0.421 |
| COc1ccccc1N1CCN(CCCCNC(=O)c2ccc3ccccc3c2)CC1 | E. coli TESEC Mtb Asd | growth | 0.156 |
| CC(C(=O)O)c1ccc(-c2ccccc2)c(F)c1 (stereo unspecified) [Flurbiprofen] | E. coli TESEC Mtb Asd | growth | 0.366 |
| COc1ncnc(NS(=O)(=O)c2ccc(N)cc2)c1OC [Sulfadoxine] | E. coli TESEC Mtb Asd | growth | 0.306 |
| CC(N/C(=N\C#N)Nc1ccncc1)C(C)(C)C (stereo unspecified) [Pinacidil] | E. coli TESEC Mtb Asd | growth | 0.369 |
| C[C@H](O)C(=O)Nc1c(I)c(C(=O)NC(CO)CO)c(I)c(C(=O)NC(CO)CO)c1I [Iopamidol] | E. coli TESEC Mtb Asd | growth | 0.443 |
| O=C1NCCN1c1ncc([N+](=O)[O-])s1 [Niridazole] | E. coli TESEC Mtb Asd | growth | 0.0946 |
| CCCCNc1c(C(=O)OCC)c(C)nc2c1cnn2CC [Tracazolate hydrochloride] | E. coli TESEC Mtb Asd | growth | 0.165 |
| CC(=O)S[C@@H]1CC2=CC(=O)CC[C@]2(C)[C@H]2CC[C@@]3(C)[C@@H](CC[C@@]34CCC(=O)O4)[C@H]12 [Spironolactone] | E. coli TESEC Mtb Asd | growth | 0.167 |
